Data origin, for the record: patent US8173654B2

- assayed_system: UniProt P08581
- Sequence (P08581 956-1390 limits assumed): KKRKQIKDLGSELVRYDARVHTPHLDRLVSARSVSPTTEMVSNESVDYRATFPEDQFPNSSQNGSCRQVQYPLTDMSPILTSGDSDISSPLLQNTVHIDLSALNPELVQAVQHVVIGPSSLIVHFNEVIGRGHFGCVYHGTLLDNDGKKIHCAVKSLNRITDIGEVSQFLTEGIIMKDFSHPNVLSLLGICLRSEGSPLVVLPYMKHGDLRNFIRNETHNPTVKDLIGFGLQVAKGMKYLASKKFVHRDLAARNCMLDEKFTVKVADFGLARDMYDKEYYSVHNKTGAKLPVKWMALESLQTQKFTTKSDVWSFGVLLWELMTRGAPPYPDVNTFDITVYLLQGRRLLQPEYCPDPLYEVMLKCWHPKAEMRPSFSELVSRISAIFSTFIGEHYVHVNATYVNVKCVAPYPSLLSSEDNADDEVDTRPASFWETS
- method_summary: Delfia autophosphorylation kinase assay on the c-Met
- Type: biochemical
- Set-up: The purified His6 tagged cytoplasmic domain of c-Met was diluted to a concentration of 500 ng/ml; host or cells: Sf9 insect cells (baculovirus, pFastBacHTa)
- assay_context: His6 tagged cytoplasmic domain of c-Met, 1 μM ATP; read-out: cMet Delfia autophos IC-50
pIC50: −log10 of the molar value.
Tag: criterion met if measured pIC50 is not below 7, criterion not met if it is.

Exercise: Please check the record c1cnc2ccc(Cc3nnc4ccc(-c5ccc6nn[nH]c6c5)nn34)cc2c1 [Example 78] and state if its pIC50 is at or above 7.
Solution: criterion not met

Exercise: How about c1cncc(-c2ccc3nnc(Cc4ccc5ncccc5c4)n3n2)c1 [Example 11] ?
Solution: criterion met

Exercise: How about Cn1cc(-c2ccc3nnc(Cc4ccc5nccnc5c4)n3n2)cn1 [Example 71] ?
Solution: criterion met

Exercise: How about O=c1ccc(Cc2nnc3ccc(-c4cccs4)nn23)c[nH]1 [Example 32] ?
Solution: criterion not met

Exercise: How about [O-][n+]1cccc2cc(Cc3nnc4ccc(-c5cn[nH]c5)nn34)ccc21 [Example 73] ?
Solution: criterion met

Exercise: How about Cc1nc2ccc(Cc3nnc4ccc(-c5cnn(C)c5)nn34)cc2s1 [Example 82] ?
Solution: criterion met

Exercise: How about CN(C)CCCNC(=O)c1ccc(-c2ccc3nnc(Cc4ccc(O)cc4)n3n2)s1 [Example 49] ?
Solution: criterion met

Exercise: How about Nc1ccc(-c2ccc3nnc(Cc4ccc5ncccc5c4)n3n2)cn1 [Example 88] ?
Solution: criterion met

Exercise: How about Nc1ccc(Cc2nnc3ccc(-c4cccs4)nn23)cc1 [Example 28] ?
Solution: criterion not met

Exercise: How about Fc1ccc(Cc2nnc3ccc(-c4cccs4)nn23)cc1 [Example 26] ?
Solution: criterion not met

Exercise: How about c1cc2c(cc1Cc1nnc3ccc(-c4ccc(N5CCOCC5)nc4)nn13)CCO2 [Example 8] ?
Solution: criterion not met

Exercise: How about Cc1nc2ccc(Cc3nnc4ccc(-c5cccnc5)nn34)cc2s1 [Example 92] ?
Solution: criterion met
